- PROTOCOL: Plasma protein binding in human assessed as fraction bound at 10 uM incubated for 4 hrs by rapid equilibrium dialysis based RF-MS analysis
- Type: ADME, cell-free
- CONDITIONS_USED: read-out: PPB (converted)
Provide the reported fraction unbound at 4 h, 10 µM of each item.
Answers are plain numbers.

Here are 4 compounds. What values of fraction unbound at 4 h, 10 µM were reported for them?
1. CC1(C)[C@@H](O)CC[C@]2(C)[C@H]3CC[C@@H]4[C@H]5[C@H](c6cc7c(c(-c8ccccc8)c6)C(=O)N(c6ccccc6)C7=O)CC[C@]5(C(=O)O)CC[C@@]4(C)[C@]3(C)CC[C@@H]12
2. CC1(C)[C@@H](O)CC[C@]2(C)[C@H]3CC[C@@H]4[C@H]5[C@H](c6cc7c(c(-c8ccccc8)c6)C(=O)N(c6ccc(N)cc6)C7=O)CC[C@]5(C(=O)O)CC[C@@]4(C)[C@]3(C)CC[C@@H]12
3. CC(=O)O[C@H]1CC[C@]2(C)[C@H]3CC[C@@H]4[C@H]5[C@H](c6cc7c(c(-c8ccccc8)c6)C(=O)N(c6cc[nH]n6)C7=O)CC[C@]5(C(=O)O)CC[C@@]4(C)[C@]3(C)CC[C@H]2C1(C)C
4. CC(=O)O[C@H]1CC[C@]2(C)[C@H]3CC[C@@H]4[C@H]5[C@H](c6cc7c(c(-c8ccccc8)c6)C(=O)N(c6nccs6)C7=O)CC[C@]5(C(=O)O)CC[C@@]4(C)[C@]3(C)CC[C@H]2C1(C)C

1. 0.231
2. 0.37
3. 0.121
4. 0.425

###

- PROTOCOL: Stability in human plasma assessed as compound remaining at 2 uM incubated for 30 mins by RF-MS analysis
- Format: ADME, cell-free
- CONDITIONS_USED: read-out: Stability
ENDPOINT_NAME: remaining at 0.5 h, 2 µM (%)
Answers are plain numbers, in %.

Please review the entries below; each comes with its answer.
CC(=O)O[C@H]1CC[C@]2(C)[C@H]3CC[C@@H]4[C@H]5[C@H](c6cc7c(c(-c8ccccc8)c6)C(=O)N(c6cc[nH]n6)C7=O)CC[C@]5(C(=O)O)CC[C@@]4(C)[C@]3(C)CC[C@H]2C1(C)C	91
CC1(C)[C@@H](O)CC[C@]2(C)[C@H]3CC[C@@H]4[C@H]5[C@H](c6cc7c(c(-c8ccccc8)c6)C(=O)N(c6ccc(N)cc6)C7=O)CC[C@]5(C(=O)O)CC[C@@]4(C)[C@]3(C)CC[C@@H]12	92
CC1(C)[C@@H](O)CC[C@]2(C)[C@H]3CC[C@@H]4[C@H]5[C@H](c6cc7c(c(-c8ccccc8)c6)C(=O)N(c6ccccc6)C7=O)CC[C@]5(C(=O)O)CC[C@@]4(C)[C@]3(C)CC[C@@H]12	95

If you can, please state the reported remaining at 0.5 h, 2 µM value of CC(=O)O[C@H]1CC[C@]2(C)[C@H]3CC[C@@H]4[C@H]5[C@H](c6cc7c(c(-c8ccccc8)c6)C(=O)N(c6nccs6)C7=O)CC[C@]5(C(=O)O)CC[C@@]4(C)[C@]3(C)CC[C@H]2C1(C)C .
95

###

- PROTOCOL: Metabolic stability in human liver microsomes assessed as parent compound remaining at 2 uM incubated for 30 mins in presence of NADPH by RF-MS analysis
- Format: ADME, Microsome
- CONDITIONS_USED: read-out: Stability
ENDPOINT_NAME: remaining at 0.5 h, 2 µM (%)
One number for each entry, in %.

Please review the entries below; each comes with its answer.
CC1(C)[C@@H](O)CC[C@]2(C)[C@H]3CC[C@@H]4[C@H]5[C@H](c6cc7c(c(-c8ccccc8)c6)C(=O)N(c6ccccc6)C7=O)CC[C@]5(C(=O)O)CC[C@@]4(C)[C@]3(C)CC[C@@H]12	87
CC1(C)[C@@H](O)CC[C@]2(C)[C@H]3CC[C@@H]4[C@H]5[C@H](c6cc7c(c(-c8ccccc8)c6)C(=O)N(c6ccc(N)cc6)C7=O)CC[C@]5(C(=O)O)CC[C@@]4(C)[C@]3(C)CC[C@@H]12	102
CC(=O)O[C@H]1CC[C@]2(C)[C@H]3CC[C@@H]4[C@H]5[C@H](c6cc7c(c(-c8ccccc8)c6)C(=O)N(c6nccs6)C7=O)CC[C@]5(C(=O)O)CC[C@@]4(C)[C@]3(C)CC[C@H]2C1(C)C	104

Proceed to the following item.
If you can, please state the reported remaining at 0.5 h, 2 µM value of CC(=O)O[C@H]1CC[C@]2(C)[C@H]3CC[C@@H]4[C@H]5[C@H](c6cc7c(c(-c8ccccc8)c6)C(=O)N(c6cc[nH]n6)C7=O)CC[C@]5(C(=O)O)CC[C@@]4(C)[C@]3(C)CC[C@H]2C1(C)C .
99

###

- PROTOCOL: Stability in human plasma assessed as compound remaining at 2 uM incubated for 15 mins by RF-MS analysis
- Assay type: ADME, cell-free
- CONDITIONS_USED: read-out: Stability
ENDPOINT_NAME: remaining at 0.25 h, 2 µM
Enter the number, and then the unit.

Please review the entries below; each comes with its answer.
CC1(C)[C@@H](O)CC[C@]2(C)[C@H]3CC[C@@H]4[C@H]5[C@H](c6cc7c(c(-c8ccccc8)c6)C(=O)N(c6ccccc6)C7=O)CC[C@]5(C(=O)O)CC[C@@]4(C)[C@]3(C)CC[C@@H]12	96%
CC(=O)O[C@H]1CC[C@]2(C)[C@H]3CC[C@@H]4[C@H]5[C@H](c6cc7c(c(-c8ccccc8)c6)C(=O)N(c6cc[nH]n6)C7=O)CC[C@]5(C(=O)O)CC[C@@]4(C)[C@]3(C)CC[C@H]2C1(C)C	97%
CC(=O)O[C@H]1CC[C@]2(C)[C@H]3CC[C@@H]4[C@H]5[C@H](c6cc7c(c(-c8ccccc8)c6)C(=O)N(c6nccs6)C7=O)CC[C@]5(C(=O)O)CC[C@@]4(C)[C@]3(C)CC[C@H]2C1(C)C	98%

If you can, please state the reported remaining at 0.25 h, 2 µM value of CC1(C)[C@@H](O)CC[C@]2(C)[C@H]3CC[C@@H]4[C@H]5[C@H](c6cc7c(c(-c8ccccc8)c6)C(=O)N(c6ccc(N)cc6)C7=O)CC[C@]5(C(=O)O)CC[C@@]4(C)[C@]3(C)CC[C@@H]12 .
106%

###

- Tested on: K562
- PROTOCOL: Cytotoxicity against human K562 cells assessed as inhibition of cell growth incubated for 72 hrs by MTS assay
- Type: functional, cell-based
- CONDITIONS_USED: K562, 72 h
ENDPOINT_NAME: IC50

Please review the entries below; each comes with its answer.
CC(=O)OC[C@]12CC[C@@H](c3ccc4c(c3)C(=O)NC4=O)[C@@H]1[C@H]1CC[C@@H]3[C@@]4(C)CC[C@H](OC(C)=O)C(C)(C)[C@@H]4CC[C@@]3(C)[C@]1(C)CC2	> 50 µM
Cc1cc([C@@H]2CC[C@]3(C(=O)O)CC[C@]4(C)[C@H](CC[C@@H]5[C@@]6(C)CC[C@H](O)C(C)(C)[C@@H]6CC[C@]54C)[C@@H]23)cc2c1C(=O)NC2=O	> 50 µM

Proceed to the following item.
If you can, please state the reported IC50 value of COc1ccc(N2C(=O)c3cc([C@@H]4CC[C@]5(C(=O)O)CC[C@]6(C)[C@H](CC[C@@H]7[C@@]8(C)CC[C@H](O)C(C)(C)[C@@H]8CC[C@]76C)[C@@H]45)cc(-c4ccccc4)c3C2=O)cc1 .
> 50 µM

###

Provide the reported IC50 at 72 h of each item.
- PROTOCOL: Cytotoxicity against human MRC5 cells assessed as inhibition of cell growth incubated for 72 hrs by MTS assay
- Type: toxicity, cell-based
Answers are plain numbers, in µM.

COC(=O)c1cc([C@@H]2CC[C@]3(C(=O)O)CC[C@]4(C)[C@H](CC[C@@H]5[C@@]6(C)CC[C@H](O)C(C)(C)[C@@H]6CC[C@]54C)[C@@H]23)cc(C)c1C(=O)OC	32.4
CC(=O)Nc1ccc(N2C(=O)c3ccc([C@@H]4CC[C@]5(C(=O)O)CC[C@]6(C)[C@H](CC[C@@H]7[C@@]8(C)CC[C@H](OC(C)=O)C(C)(C)[C@@H]8CC[C@]76C)[C@@H]45)cc3C2=O)cc1	19.8
CC1(C)[C@@H](O)CC[C@]2(C)[C@H]3CC[C@@H]4[C@H]5[C@H](c6ccc7c(c6)C(=O)N(c6ccccc6)C7=O)CC[C@]5(C(=O)O)CC[C@@]4(C)[C@]3(C)CC[C@@H]12	31

Here are 2 compounds. What values of IC50 at 72 h were reported for them?
1. CC1(C)[C@@H](O)CC[C@]2(C)[C@H]3CC[C@@H]4[C@H]5[C@H](c6cc(C#N)c(C#N)c(-c7ccccc7)c6)CC[C@]5(C(=O)O)CC[C@@]4(C)[C@]3(C)CC[C@@H]12
2. Cc1cc([C@@H]2CC[C@]3(C(=O)O)CC[C@]4(C)[C@H](CC[C@@H]5[C@@]6(C)CC[C@H](O)C(C)(C)[C@@H]6CC[C@]54C)[C@@H]23)cc2c1C(=O)NC2=O

1. 25.7
2. 34.3
